Every entry's value here was drawn from ChEMBL document CHEMBL1152393.

Tested on: Liver microsomes
condition.summary: human
Please go through the items and note down their CL.

What does the record list as CL for `N#Cc1cc(N2CCN(CCN3CCC(C(F)(F)F)CC3)C2=O)ccc1F` ?
9.1 mL/min/g

Same for `N#Cc1cccc(N2CCN(CCN3Cc4ccccc4C3)C2=O)c1`
1.6 mL/min/g

Same for `CC(C)N1CCN(CCN2CCN(c3cccc(C#N)c3)C2=O)CC1`
< 0.5 mL/min/g

Same for `O=C1N(CCN2Cc3ccccc3C2)CCN1c1cccc(Cl)c1`
8.9 mL/min/g

Same for `O=C1N(CCN2CCC(C(F)(F)F)CC2)CCN1c1cccc(Cl)c1`
17.6 mL/min/g
